assayed_system: Recombinant human NK3 (hNK3) receptor (Homo sapiens, UniProt P29371)
Construct: expressed in transfected cells
Sequence (P29371 1-465): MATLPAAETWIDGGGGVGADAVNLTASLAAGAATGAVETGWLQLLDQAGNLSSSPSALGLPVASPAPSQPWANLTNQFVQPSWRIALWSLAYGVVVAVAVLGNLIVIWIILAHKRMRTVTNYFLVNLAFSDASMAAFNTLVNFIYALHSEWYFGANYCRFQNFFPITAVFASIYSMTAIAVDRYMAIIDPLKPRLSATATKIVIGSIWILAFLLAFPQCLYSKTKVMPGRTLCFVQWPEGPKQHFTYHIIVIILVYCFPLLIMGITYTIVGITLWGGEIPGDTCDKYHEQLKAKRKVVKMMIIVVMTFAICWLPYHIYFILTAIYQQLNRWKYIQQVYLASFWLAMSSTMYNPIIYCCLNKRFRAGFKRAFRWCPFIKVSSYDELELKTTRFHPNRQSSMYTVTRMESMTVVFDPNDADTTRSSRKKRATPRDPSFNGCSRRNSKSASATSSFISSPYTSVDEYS
test_summary: NK3 receptor binding, [3H]SR142801 displacement, membrane preparations
cond: second value of the cell NK1/NK3; read-out: pKi NK3 (converted)
measurement_type: Ki (nM)
Only the number, expressed in nM, is required.

Item: CN(C(=O)C(C)(C)c1cc(C(F)(F)F)cc(C(F)(F)F)c1)c1cnc(N2C[C@@H](O)C[C@H]2CO)cc1-c1ccccc1C(F)(F)F [Example 243] | Ki: 4.68

Notebook: Cc1cc(-c2cc(N3C[C@H](O)C[C@H]3CO)ncc2N(C)C(=O)C(C)(C)c2cc(C(F)(F)F)cc(C(F)(F)F)c2)ccc1F [Example 211] , Ki read as 15.5

Data point: CN(C(=O)C(C)(C)c1cc(C(F)(F)F)cc(C(F)(F)F)c1)c1cnc(N2CCC[C@H]2CO)cc1-c1ccc(Cl)cc1Cl [Example 283] ; Ki = 1.48

###

assayed_system: Recombinant human NK3 (hNK3) receptor (Homo sapiens)
Construct: expressed in transfected cells
test_summary: NK3 receptor binding, [3H]SR142801 displacement, membrane preparations
cond: second value of the cell pKi NK1/NK3; hNK3 receptor, [3H]SR142801
Give pKi for every item shown.
Worth noting: pKi values are minus log10 of concentrations stated in mol/L.

Lab note: measured pKi of CC(O)CN(CC(C)O)c1cc(-c2ccccc2Cl)c(N(C)C(=O)C(C)(C)c2cc(C(F)(F)F)cc(C(F)(F)F)c2)cn1 (centres unmarked) was 7.86

// pKi value for "C[C@H](O)CNc1cc(-c2ccc(Cl)cc2Cl)c(N(C)C(=O)C(C)(C)c2cc(C(F)(F)F)cc(C(F)(F)F)c2)cn1" : 8.04

Reported pKi of "CN(C(=O)C(C)(C)c1cc(C(F)(F)F)cc(C(F)(F)F)c1)c1cnc(NC[C@@H](O)CO)cc1-c1ccccc1Cl" : 8.11

Given item "CN(C(=O)C(C)(C)c1cc(C(F)(F)F)cc(C(F)(F)F)c1)c1cnc(N[C@@H]2CCC[C@H]2O)cc1-c1ccccc1Cl" , the value recorded as its pKi is 8.11

// pKi value for CCC(O)CNc1cc(-c2ccccc2Cl)c(N(C)C(=O)C(C)(C)c2cc(C(F)(F)F)cc(C(F)(F)F)c2)cn1 (centres unmarked) : 7.97

###

Kindly state Ki for each of the entries shown.
assayed_system: human NK1 receptor (Homo sapiens, UniProt P25103)
Sequence (P25103 whole entry): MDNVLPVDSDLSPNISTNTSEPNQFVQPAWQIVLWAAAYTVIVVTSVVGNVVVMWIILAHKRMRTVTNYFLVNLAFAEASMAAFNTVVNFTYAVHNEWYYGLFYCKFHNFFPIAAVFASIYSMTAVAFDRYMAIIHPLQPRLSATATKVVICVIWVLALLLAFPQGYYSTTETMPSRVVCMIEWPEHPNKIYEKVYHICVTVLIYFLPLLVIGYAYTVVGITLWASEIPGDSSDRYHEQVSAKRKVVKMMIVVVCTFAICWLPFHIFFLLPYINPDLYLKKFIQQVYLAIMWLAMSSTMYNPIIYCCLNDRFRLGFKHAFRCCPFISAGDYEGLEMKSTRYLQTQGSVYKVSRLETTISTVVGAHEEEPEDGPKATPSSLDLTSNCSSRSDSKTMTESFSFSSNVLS
test_summary: NK1 receptor binding, [3H]substance P displacement, CHO cell membranes
cond: first value of the cell NK1/NK3; read-out: pKi NK1 (converted)
Could you give me the number in nM? Just the number is fine.

Reported Ki for CN(C(=O)C(C)(C)c1cc(C(F)(F)F)cc(C(F)(F)F)c1)c1cnc(N2C[C@@H](O)C[C@H]2CO)cc1-c1ccc(Cl)c(Cl)c1 [Example 252] was 1.66

Entry Cc1cc(-c2cc(N3C[C@@H](O)C[C@H]3CO)ncc2N(C)C(=O)C(C)(C)c2cc(C(F)(F)F)cc(C(F)(F)F)c2)ccc1F [Example 248] — recorded Ki = 2.19

The compound COc1ccccc1-c1cc(N2CC[C@H](O)[C@H]2CO)ncc1N(C)C(=O)C(C)(C)c1cc(C(F)(F)F)cc(C(F)(F)F)c1 [Example 263] showed Ki equal to 1.02

For this compound ( CN(C(=O)C(C)(C)c1cc(C(F)(F)F)cc(C(F)(F)F)c1)c1cnc(N2CC[C@H](O)[C@H]2CO)cc1-c1cc(F)ccc1F [Example 277] ), measured Ki is 1.48

Ki reported for this compound COc1ccc(-c2cc(N3C[C@H](O)C[C@H]3CO)ncc2N(C)C(=O)C(C)(C)c2cc(C(F)(F)F)cc(C(F)(F)F)c2)c(OC)n1 [Example 231] : 2.45

Just so you know, measured Ki for CN(C(=O)C(C)(C)c1cc(C(F)(F)F)cc(C(F)(F)F)c1)c1cnc(N2CC[C@H](O)[C@H]2CO)cc1-c1ccc(Cl)c(Cl)c1 [Example 268] came out at 2.29
